# TARGET OR TEST SYSTEM: Mitogen-activated protein kinase 8 (Homo sapiens, UniProt P45983)
# Sequence (P45983 whole entry): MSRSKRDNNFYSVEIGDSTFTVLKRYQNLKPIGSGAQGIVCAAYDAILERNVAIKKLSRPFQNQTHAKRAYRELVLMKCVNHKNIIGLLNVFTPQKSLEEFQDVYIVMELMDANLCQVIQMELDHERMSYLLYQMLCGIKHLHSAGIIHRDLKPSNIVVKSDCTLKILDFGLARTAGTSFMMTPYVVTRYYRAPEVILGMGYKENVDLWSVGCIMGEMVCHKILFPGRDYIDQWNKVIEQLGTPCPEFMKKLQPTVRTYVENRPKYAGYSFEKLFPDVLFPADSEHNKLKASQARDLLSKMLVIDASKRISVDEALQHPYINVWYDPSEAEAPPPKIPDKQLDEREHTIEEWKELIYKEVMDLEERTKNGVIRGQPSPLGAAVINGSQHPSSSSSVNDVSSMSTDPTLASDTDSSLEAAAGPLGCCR
# ASSAY COMMENT: Negative log of inhibitory concentration determined against c-Jun N-terminal kinase (Activity reported against the isolated JNK-1 enzyme)
VALUE TYPE: IC50 (nM)

// worked examples, IC50 included
O=[N+]([O-])c1ccc2[nH]nc(NCc3ccccc3Cl)c2c1Oc1ccccc1 :: 1580
CC(=O)Nc1ccc(CNc2[nH]nc3ccnc(Oc4ccccc4)c23)cc1 :: 158
COc1ccc(OC)c(CNc2[nH]nc3cccc(Oc4ccc(F)cc4)c23)c1 :: 200
CC(=O)Nc1ccc(CNc2[nH]nc3cccc(Oc4ccc(F)cc4)c23)cc1 :: 501

(A) COc1ccc(OC)c(CNc2[nH]nc3ccc([N+](=O)[O-])c(Oc4ccccc4)c23)c1
(B) COc1ccc(OC)c(CNc2[nH]nc3ccnc(Oc4ccccc4)c23)c1
Of the pair A and B , name the member with the lesser recorded IC50. Write the label of whichever entry you select. B
(B: 15.8 nM, A: 794 nM)

(P) C[C@H](NC(=O)c1cccnc1Oc1ccccc1)c1ccccc1
(Q) COc1ccc(OC)c(CNC(=O)c2cccnc2Oc2ccccc2)c1
(R) CC(=O)Nc1ccc(CNc2[nH]nc3cccc(Oc4ccccc4)c23)cc1
Exam item: list the entries in increasing order of IC50. Rank them, then answer with their labels in that order. Q, R, P

====

# TARGET OR TEST SYSTEM: Mitogen-activated protein kinase 8 (Homo sapiens, UniProt P45983)
# ASSAY COMMENT: Negative log of inhibitory concentration determined against c-Jun N-terminal kinase (Activity reported against the isolated JNK-1 enzyme)
pIC50: −log10 of the molar value.
VALUE TYPE: pIC50

O=C(NCc1ccccc1Cl)c1cccnc1Oc1ccccc1F :: 5.80
Clc1ccc(Cl)c(CNc2[nH]nc3cccc(Oc4ccccc4)c23)c1 :: 6.10
COc1ccc(OC)c(CNc2[nH]nc3cccc(Oc4ccccc4)c23)c1 :: 6.90

(a) Clc1cccc(CNc2[nH]nc3cccc(Oc4ccccc4)c23)c1
(b) COc1ccc(Oc2ncccc2C(=O)NCc2ccccc2Cl)cc1
Which item exceeds the other in pIC50, a or b ? Write the label of whichever entry you select. a
(a: 5.90, b: 5.40)

(a) COc1ccc(OC)c(CNc2[nH]nc3cccc(Oc4ccc(S(C)(=O)=O)cc4)c23)c1
(b) CC(=O)Nc1ccc(CNc2[nH]nc3cccc(Oc4ccc(S(C)(=O)=O)cc4)c23)cc1
Of the pair a and b , name the member with the lesser recorded pIC50. Write the label of whichever entry you select. b

Measured values drawn from ChEMBL document CHEMBL1140363 for this set.
